Data origin: PubChem BioAssay (NCI)

- Tested on: T-47D breast
- METHOD_DESCRIPTION: NCI-60 one-dose screen, 48 h (100 = growth as untreated, 0 = no growth, -100 = all killed)
- CONDITION_CONTEXT: 10 µM unless noted
This is part of a sample that, as a whole, favours compounds with a hit. Of some 83,000 tested, about 20% had one in any assay.
EXPERIMENTAL_ENDPOINT: growth (%)
All answers are understood in %, so give the number only.

Record request: growth value, item "O=C(/C=C/c1cccs1)Nc1ncc(Cc2ccccc2F)s1" 23.8

Record request: growth value, item COc1cc(C2c3cc(OC(C)=O)c(OC)cc3CC3C(=O)OCC32)ccc1OC(C)=O (configuration not stated) 103

Record request: growth value, item "CCNCCNc1cc(C2CCCCC2)c(C#N)c2nc3ccccc3n12" -19.4

Record request: growth value, item "Cc1cc(N2CCN(CCNc3ccnc4cc(Cl)ccc34)CC2)nc(N2CCOCC2)n1" 55.9

Record request: growth value, item Fc1cnccc1C1CC(c2ccc(N3CCNCC3)cc2)=NN1 (configuration not stated) 82.2

Record request: growth value, item "O=C(N(c1ccccc1)c1ccccc1)n1cc(I)c2nc(Cl)nc(Cl)c21" 61.2

Record request: growth value, item "CCOC(=O)c1cc(C)n(-c2ccc(C(=O)O)cc2)c1C" 102

Record request: growth value, item "Nc1c(C(=O)Nc2ccccc2F)sc2nc3c(cc12)CCCC3" 41.9

Record request: growth value, item "O=C1/C(=C/c2ccccc2O)CC/C1=C\c1ccccc1O" 47.3

Record request: growth value, item "Cn1ccc(=O)c(C(=O)Nc2nsc3ccc([N+](=O)[O-])cc23)c1" 74.6

Record request: growth value, item "COc1ccccc1CNc1c2ccccc2nc2ccccc12" 46.2

Record request: growth value, item "NC(=O)CSc1oc(-c2ccccc2)nc1S(=O)(=O)c1ccc(Br)cc1" 57.8

Record request: growth value, item COc1ccc(C2CC(c3ccc(Nc4nc(Nc5ccccc5)nc(Nc5ccccc5)n4)cc3)=NN2C(C)=O)cc1 (configuration not stated) 73.4

Record request: growth value, item "Cn1c(=O)cc2c3c(c(NCCCO)ccc31)C(=O)c1ccccc1-2" 51.8

Record request: growth value, item "CN(C)S(=O)(=O)c1cccc(C(=O)Nc2nc(-c3ccc(F)c(F)c3)cs2)c1" 19.7

Record request: growth value, item "N#Cc1c(-c2ccc(Cl)cc2)nc(NN2C(=O)c3ccccc3C2=O)nc1N1CCOCC1" 94.7

Record request: growth value, item "CCOCCNC1=C(Cl)C(=O)c2ccccc2C1=O" 90.8

Record request: growth value, item "CSc1oc(C)nc1[P+](c1ccccc1)(c1ccccc1)c1ccccc1" 8.57

Record request: growth value, item CC1CN(S(=O)(=O)c2oc(-c3ccc(Cl)cc3)nc2C#N)CC(C)O1 (configuration not stated) 27

Record request: growth value, item "Cc1ccc(/C=C2\COc3ccc(O)cc3C2=O)cc1" 88.9

Record request: growth value, item Cc1cc(C)c2c(c1)N(C)c1ncnc(-n3cnc4cc(C)ccc43)c1CC2C (configuration not stated) 28.8

Record request: growth value, item "Fc1cccc(Oc2ccc(Nc3ncnc4ccc(OCCCN5CCOCC5)cc34)cc2Cl)c1" 36

----------
- Tested on: NCI-H522 lung
- METHOD_DESCRIPTION: NCI-60 one-dose screen, 48 h
- CONDITION_CONTEXT: 10 µM unless noted
About 83,000 compounds went through this panel and 20% of them were active in at least one assay; those are over-represented in the sample as a whole. The source made the active and inactive calls. Rule for the calls: active = growth percent below 10; inactive = the rest.
Tick one outcome: active, inactive

Could you kindly confirm the outcome this assay logged for "CCOC(=O)c1ccc2c(c1)nc(-c1ccccc1)n2C1CCCCC1" ? inactive

Could you kindly confirm the outcome this assay logged for "CCOC(=O)c1c(C(=O)c2cn(C)c3ccc(Br)cc23)c(-c2cn(C)c3ccc(Br)cc23)n(NC(=O)OC(C)(C)C)c1C" ? inactive

Could you kindly confirm the outcome this assay logged for "Cc1cn(-c2cc(NC(=O)c3cccc(C#Cc4cccc5[nH]nc(N)c45)c3)cc(C(F)(F)F)c2)cn1" ? inactive

Could you kindly confirm the outcome this assay logged for "Cc1c(-c2ccc(O)cc2)n(Cc2ccc(OCCN3CCCCCC3)cc2)c2ccc(O)cc12" ? inactive

Could you kindly confirm the outcome this assay logged for "COC(=O)c1c(C)nc(C)c2c1C(=O)C(Br)=C(NCc1ccccc1)C2=O" ? inactive

Could you kindly confirm the outcome this assay logged for "COc1c(B(O)O)cccc1-c1nc2c(F)cc3[nH]ncc3c2c2c1CCCC2" ? active

Could you kindly confirm the outcome this assay logged for "Cc1ccc(Nn2c(SCC(=O)Nc3nc(-c4ccccc4)cs3)nc(C)c2C)cc1" ? inactive

Could you kindly confirm the outcome this assay logged for "CCCCC1=C(P(=O)(O)O)N[C@H](C(=O)O)CS1" ? inactive

Could you kindly confirm the outcome this assay logged for "Cc1ccc(-c2nc(N3CCCNCC3)c3oc(-c4ccc(C)cc4)nc3n2)cc1" ? inactive

----------
- Tested on: PC-3 prostate
- METHOD_DESCRIPTION: NCI-60 one-dose screen, 48 h (100 = growth as untreated, 0 = no growth, -100 = all killed)
- CONDITION_CONTEXT: 10 µM unless noted
This is part of a sample that, as a whole, favours compounds with a hit. Of some 83,000 tested, about 20% had one in any assay.
For each of the compounds below, state its growth.
All answers are understood in %, so give the number only.

Record request: growth value, item COc1ccc(C2CC(c3ccc(Nc4nc(Nc5ccccc5)nc(Nc5ccccc5)n4)cc3)=NN2C(C)=O)cc1 (stereo not drawn) 86.4

Record request: growth value, item "CS(=O)(=O)Nc1cc(-c2ccc3ncnc(Nc4ccc5c(cnn5Cc5ccc(F)cc5)c4)c3c2)cnc1Cl" 38.2

Record request: growth value, item "COC(=O)CC[C@@H]1O[C@@H](c2cccc(C(F)(F)F)c2)[C@@H](O)[C@H]1O" 97.8

Record request: growth value, item "CCN1CCN(C(=O)[C@]23CCC(C)(C)C[C@@H]2C2=CC[C@@H]4[C@@]5(C)CCC(=O)C(C)(C)[C@@H]5CC[C@@]4(C)[C@]2(C)CC3)CC1" 26.1

Record request: growth value, item "O=C(CN1C(=O)S/C(=C\c2ccccc2)C1=O)Nc1ncc(Cc2ccccc2Cl)s1" 79

Record request: growth value, item "O=C(c1ccncc1)N1N=C(c2ccc(Cl)cc2)C[C@H]1c1cn(-c2ccccc2)nc1-c1ccccc1" 79.5

Record request: growth value, item "N#Cc1ccc2c(c1)C(=O)c1c-2n(CCCN)c(=O)c2cc([N+](=O)[O-])ccc12" -74.4

Record request: growth value, item CC1CCc2c(C(=O)Nc3ncc(Cc4cccc([N+](=O)[O-])c4)s3)csc2C1 (stereo not drawn) 35.7

----------
For each of the compounds below, state its growth.
- Tested on: PC-3 prostate
- METHOD_DESCRIPTION: NCI-60 one-dose screen, 48 h (100 = growth as untreated, 0 = no growth, -100 = all killed)
- CONDITION_CONTEXT: 10 µM unless noted
The panel holds about 83,000 compounds, 20% with a hit somewhere; the sample as a whole holds those more often. The source made the active and inactive calls. The calls were made as follows: active = growth percent below 10; inactive = the rest.

Record request: growth value, item "COc1cc(OC)c(/C=C/C(=O)c2c(OC)cccc2OC)c(OC)c1" 11.6% (inactive)

Record request: growth value, item "COc1ccc(C(=O)c2cc3c(N)c(C(=O)Nc4ccc(C)cc4)sc3nc2C)cc1" 25.1% (inactive)

Record request: growth value, item "COc1ccc2c(c1)c(-c1nc(-c3c[nH]c4ccncc34)cs1)cn2C" -81.1% (active)

Record request: growth value, item Nc1ncnc2c1N=C(c1ccc(Br)cc1)CC(c1cccc(Nc3ccnc4cc(C(F)(F)F)ccc34)c1)N2 (stereo not given) 39% (inactive)

Record request: growth value, item "O=S(=O)(Nc1cc(F)cc(Cl)c1)c1ccc(-c2cnc(C3CC3)o2)cc1" 32% (inactive)

Record request: growth value, item "Cc1ccc(/C=C2\COc3ccc(O)cc3C2=O)cc1" 86% (inactive)

Record request: growth value, item "O=C1/C=C/[C@@H](O)[C@@H]2C[C@@H](O)C[C@H]2/C=C/CCC[C@H](CCc2ccccc2)O1" 16.7% (inactive)

Record request: growth value, item "O=C1/C(=C/c2cn(-c3ccccc3)nc2-c2ccccc2)SC(=S)N1C1CCCCC1" 96.3% (inactive)

Record request: growth value, item "COC(=O)c1nc(-c2ccccc2)oc1S(=O)(=O)Cc1ccccc1" 91.6% (inactive)

Record request: growth value, item "Oc1c(I)cc(I)cc1CNCCN(Cc1ccccn1)Cc1ccccn1" -41% (active)

----------
- Tested on: SK-OV-3 ovarian
- METHOD_DESCRIPTION: NCI-60 one-dose screen, 48 h (100 = growth as untreated, 0 = no growth, -100 = all killed)
- CONDITION_CONTEXT: 10 µM unless noted
- Method: Growth inhibition of the SK-OV-3 human tumor cell line is measured as a screen for anti-cancer activity. Cells are grown in 96 well plates and exposed to the test compound for 48 hours. Compounds are tested at a single concentration, which is 10^-5 M for most compounds. The reported endpoint is percent growth (GI% or GIPRCNT), where numbers from 0 - 100% represent growth inhibition, and numbers from -100% - 0 represent cell death. For example, a value of 40 represents 60% growth inhibition. […]
This is part of a sample that, as a whole, favours compounds with a hit. Of some 83,000 tested, about 20% had one in any assay.
We use 40% as the dividing line for growth: on or above the line is rule met, below is rule not met.

Dear colleague, could you confirm whether "O=S(=O)(Nc1cc(Cl)ccc1Cl)c1ccc(-c2cnc(C3CC3)o2)cc1" has growth at or above 40%? rule met

Dear colleague, could you confirm whether "O=C1C(Cl)=C(Nc2ccc(S(=O)(=O)N3CCOCC3)cc2)C(=O)c2ccccc21" has growth at or above 40%? rule met

Dear colleague, could you confirm whether "COC(=O)/C=C1/SC(=Nc2ccc(C(F)(F)F)cc2)N(CCc2c[nH]c3ccc(O)cc23)C1=O" has growth at or above 40%? rule not met

Dear colleague, could you confirm whether "COc1cccc(CNc2ccc3ncnc(Nc4ccc(F)c(Cl)c4)c3c2)c1" has growth at or above 40%? rule met

Dear colleague, could you confirm whether "O=C(Nc1cccc(-c2ccc(N3CCOCC3)nn2)c1)Nc1cccc(C(F)(F)F)c1" has growth at or above 40%? rule met
